Attribution: PubChem BioAssay (NCI)

Tested on: NCI-H322M lung
experimental.details: NCI-60 one-dose screen, 48 h (100 = growth as untreated, 0 = no growth, -100 = all killed)
measurement.conditions: 10 µM unless noted
Compounds without any hit were thinned out: in the full panel of roughly 83,000, 20% have a hit. Activity calls are given as the source filed them. How the source made its calls: active means growth percent below 10; inactive means the rest.
test.readout: growth

smiles_representation=CCOc1ccccc1NC(=O)CCl test_readout=growth reported_result="107% (inactive)"
smiles_representation=N#C/C(=C\c1ccc2c(c1)OCO2)c1ccccc1 test_readout=growth reported_result="95.1% (inactive)"
smiles_representation=C=C(c1ccc(N(C)C)cc1)c1ccc(N(C)C)cc1 test_readout=growth reported_result="29.7% (inactive)"
smiles_representation=CC(=O)CSc1ncnc2nc[nH]c12 test_readout=growth reported_result="115% (inactive)"
smiles_representation=CCOP(=O)(OCC)/C(=C\N1C(=O)CC(=O)NC1=S)C(=O)OC test_readout=growth reported_result="107% (inactive)"

// fetch NCI-H322M lung growth for CCN(C(=O)Nc1ccccc1Cl)c1ccccc1
109% (inactive)

Look up growth with NCI-H322M lung for this compound: Cc1cccc(C)c1NC(=S)/N=C\c1c(O)[nH]c(=O)[nH]c1=O
98.5% (inactive)

====

Tested on: SK-MEL-28 melanoma
experimental.details: NCI-60 one-dose screen, 48 h
measurement.conditions: 10 µM unless noted
About 83,000 compounds went through this panel and 20% of them were active in at least one assay; those are over-represented in the sample as a whole. Active and inactive are the calls of the source. The calls were made as follows: active = growth percent below 10; inactive = the rest.
// classify into active, inactive

Completed entries (count: 3):
compound="O=C1NCC2CCCC1C2 (stereo not drawn)" target_of_assay="SK-MEL-28 melanoma" class_label=inactive
compound="CC(O)C(F)(F)C(F)(F)C(F)(F)F (stereo not drawn)" target_of_assay="SK-MEL-28 melanoma" class_label=inactive
compound=O=[N+]([O-])c1ccc(-c2nc(N(CCO)CCO)c3ccccc3n2)o1 target_of_assay="SK-MEL-28 melanoma" class_label=active

In this assay, the call recorded for N#Cc1ccc(OC(=O)Nc2cc(Cl)cc(Cl)c2)cc1 was what?
active

Write down the call the test reported for this compound. Item: N=C(N)c1nn(C2OC(CO)C(O)C2O)c2nc[nH]c(=O)c12 (stereo not drawn)
active

Entry C/C(=N\N=C(/C)c1cccc([N+](=O)[O-])c1)c1cccc([N+](=O)[O-])c1 : call = ?
inactive

Look up the recorded call for FC(F)(F)c1cc(NC2=NCCN=C(Nc3cc(C(F)(F)F)cc(C(F)(F)F)c3)SS2)cc(C(F)(F)F)c1 in this test.
inactive

Recorded call for O=Cc1ccc(Cl)c(Cl)c1 ?
inactive

Just curious, what result did C/C(=N\O)c1ccccn1 get here?
inactive

Record lookup: outcome of this test for CCOC(C=O)OCC ?
inactive

====

Test system: NCI/ADR-RES ovarian
experimental.details: NCI-60 one-dose screen, 48 h (100 = growth as untreated, 0 = no growth, -100 = all killed)
measurement.conditions: 10 µM unless noted
This is part of a sample that, as a whole, favours compounds with a hit. Of some 83,000 tested, about 20% had one in any assay.
test.readout: growth (%)
Kindly provide the numeric value in % only, without the unit symbol.

Some entries whose results are on file:
compound=C/C(=N\N=C(/C)c1cccc([N+](=O)[O-])c1)c1cccc([N+](=O)[O-])c1 unit_annotation=% reported_result=93.9
compound=c1ccc(-c2ccc3ccccc3c2)cc1 unit_annotation=% reported_result=105
compound=C#CCSc1nnnn1-c1ccccc1 unit_annotation=% reported_result=86.7
compound=COc1ccc(Br)c(C=O)c1 unit_annotation=% reported_result=51.6

Form: Entry = Clc1ccc(/C=C/c2ccccn2)cc1 | System = NCI/ADR-RES ovarian | growth = ____
98.8

API: value(readout=growth, system=NCI/ADR-RES ovarian) for record COc1cccc2c1Cc1ccccc1-2
98.6

Observed growth on NCI/ADR-RES ovarian for C[C@H](CCC[C@H](C)OS(=O)(=O)c1ccccc1)OS(=O)(=O)c1ccccc1 , please.
116

// fetch NCI/ADR-RES ovarian growth for CC(C)(CC(=O)O)CC(=O)O
99.9

Param readout = growth; param system = NCI/ADR-RES ovarian; param query = CC1(C)CC(=O)C=C(N)C1 ; response: value
83.4

Record lookup: for NCI/ADR-RES ovarian, what growth belongs to Cc1cc2c(C(C)C)c(O)c(O)c(C=Nc3ccccc3[N+](=O)[O-])c2c(O)c1-c1c(C)cc2c(C(C)C)c(O)c(O)c(C=Nc3ccccc3[N+](=O)[O-])c2c1O ?
94.8

Short answer please: growth, NCI/ADR-RES ovarian, entry O=S(=O)(O)c1cccnc1
128

Hi! What's the reported growth for Cc1ccc2nc(N)nnc2c1 on NCI/ADR-RES ovarian?
96

Entry Cc1cc(NC(=O)c2ccccc2)c(Cl)cc1N , system NCI/ADR-RES ovarian: what growth was measured?
102

API: value(readout=growth, system=NCI/ADR-RES ovarian) for record CCCCCC#CC(=O)O
119

GET /values?readout=growth&system=NCI/ADR-RES ovarian&item= CC(=O)NNC(=S)N/C=C/c1c(C)ccc([N+](=O)[O-])c1[N+](=O)[O-]
97.9

Give recorded growth with NCI/ADR-RES ovarian for the following compound: OC(CCN1CCCCC1)(c1ccccc1)c1ccccc1
100

// fetch NCI/ADR-RES ovarian growth for C/C(=N\O)c1ccccn1
100

NCI/ADR-RES ovarian / growth / CC(=O)C1C(=O)C(=O)N(c2ccc(Cl)c(Cl)c2)C1=O (configuration not stated) : value?
97

What growth appears in the records for this compound with NCI/ADR-RES ovarian? Cc1[nH]nc(C(N)=O)c1[N+](=O)[O-]
102

Under NCI/ADR-RES ovarian: growth value of CC(C)(C)[Si](C)(C)OCC1OC(n2cnc3c(N)ncnc32)CC1OS(C)(=O)=O (configuration not stated) ?
103
